target: Estrogen receptor (Mus musculus) (UniProt O08537+P19785); assay: Percent inhibition of estrone stimulated uterotrophic effect in mice at 150 ug; assay type: functional
Sequence (O08537 whole entry, looked up): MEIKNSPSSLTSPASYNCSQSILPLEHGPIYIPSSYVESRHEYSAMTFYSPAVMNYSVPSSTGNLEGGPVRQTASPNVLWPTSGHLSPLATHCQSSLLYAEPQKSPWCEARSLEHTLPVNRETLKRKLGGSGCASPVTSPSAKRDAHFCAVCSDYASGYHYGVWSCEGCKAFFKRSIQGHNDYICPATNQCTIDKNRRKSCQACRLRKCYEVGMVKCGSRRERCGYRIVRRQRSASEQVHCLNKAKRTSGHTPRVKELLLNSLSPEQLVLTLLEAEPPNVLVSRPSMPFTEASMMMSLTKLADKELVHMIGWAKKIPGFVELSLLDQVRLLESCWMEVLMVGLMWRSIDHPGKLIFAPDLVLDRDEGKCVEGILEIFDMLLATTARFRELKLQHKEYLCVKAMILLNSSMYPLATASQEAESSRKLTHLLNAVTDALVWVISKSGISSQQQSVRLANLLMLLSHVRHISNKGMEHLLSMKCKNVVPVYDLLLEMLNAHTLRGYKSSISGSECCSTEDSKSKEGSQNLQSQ
Sequence (P19785 whole entry, looked up): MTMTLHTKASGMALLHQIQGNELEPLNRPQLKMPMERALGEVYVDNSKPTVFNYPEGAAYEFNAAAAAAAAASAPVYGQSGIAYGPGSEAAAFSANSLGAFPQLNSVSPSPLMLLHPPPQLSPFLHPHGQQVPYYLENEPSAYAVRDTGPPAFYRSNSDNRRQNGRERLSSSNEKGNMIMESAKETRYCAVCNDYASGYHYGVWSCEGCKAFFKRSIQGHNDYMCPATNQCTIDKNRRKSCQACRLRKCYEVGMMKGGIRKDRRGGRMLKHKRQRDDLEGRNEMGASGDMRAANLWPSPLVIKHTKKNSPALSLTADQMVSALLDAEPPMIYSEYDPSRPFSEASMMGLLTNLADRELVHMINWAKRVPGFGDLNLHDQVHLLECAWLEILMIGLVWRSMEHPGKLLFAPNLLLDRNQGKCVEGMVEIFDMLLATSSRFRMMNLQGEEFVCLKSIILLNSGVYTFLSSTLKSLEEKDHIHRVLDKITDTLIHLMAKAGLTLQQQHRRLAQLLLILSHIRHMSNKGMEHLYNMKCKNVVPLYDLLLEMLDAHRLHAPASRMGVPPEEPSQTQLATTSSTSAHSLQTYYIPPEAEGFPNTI
ENDPOINT_NAME: inhibition (%)
Numbers only, in %.

Record excerpt, results attached:
1) Cc1c(-c2ccc(O)cc2)n(CCCCCCCNCc2ccccn2)c2ccc(O)cc12 ... 48
2) Cc1c(-c2ccc(O)cc2)n(CCCCNCc2ccccn2)c2ccc(O)cc12 ... 25
3) Oc1ccc(-c2cc3cc(O)ccc3n2CCCCCCNCc2ccccn2)cc1 ... 5
4) CCC(NCCCCCCn1c(-c2ccc(O)cc2)c(C)c2cc(O)ccc21)c1ccccn1 (configuration not stated) ... 51
5) Cc1c(-c2ccc(O)cc2)n(CCCCCCNC(C)c2ccccn2)c2ccc(O)cc12 (configuration not stated) ... 77
6) Cc1c(-c2ccc(O)cc2)n(CCCCCCNCc2ccccn2)c2ccc(O)cc12 ... 31

Consider the additional molecule presented here.
query: Supply reported inhibition belonging to this molecule: Cc1c(-c2ccc(O)cc2)n(CCCCCNCc2ccccn2)c2ccc(O)cc12
result: 5

----------
molecular target: Estrogen receptor (Mus musculus) (UniProt O08537+P19785); test: Anti-uterotrophic effect in mice as relative uterine weight(mg) at 15 ug; format: functional
Would you mind telling me the reported Relative uterus weight of each entry?
Show the value, then the unit it is measured in.

Record excerpt, results attached:
1. Cc1c(-c2ccc(O)cc2)n(CCCCCCNCc2ccccn2)c2ccc(O)cc12 ... 46.6 mg
2. Oc1ccc(-c2cc3cc(O)ccc3n2CCCCCCNCc2ccccn2)cc1 ... 40.6 mg
3. Cc1c(-c2ccc(O)cc2)n(CCCCNCc2ccccn2)c2ccc(O)cc12 ... 52.2 mg
4. Cc1c(-c2ccc(O)cc2)n(CCCCCCNC(C)c2ccccn2)c2ccc(O)cc12 (configuration not stated) ... 34.2 mg
5. CCC(NCCCCCCn1c(-c2ccc(O)cc2)c(C)c2cc(O)ccc21)c1ccccn1 (configuration not stated) ... 32.8 mg

Please give Relative uterus weight, item by item, for the list that follows.
1. Cc1c(-c2ccc(O)cc2)n(CCCCCCCNCc2ccccn2)c2ccc(O)cc12
2. Cc1c(-c2ccc(O)cc2)n(CCCCCNCc2ccccn2)c2ccc(O)cc12

result:
1. 41.9 mg
2. 42.6 mg

----------
Would you mind telling me the reported T/C of each entry?
test system: MCF7; experiment: Effect on [3H]thymidine incorporation into estrogen receptor positive MCF-7 human breast cancer cells at 5x10E-6M; format: functional

Record excerpt, results attached:
1. Cc1c(-c2ccc(O)cc2)n(CCCCCCNCc2ccccn2)c2ccc(O)cc12 ... 5%
2. Cc1c(-c2ccc(O)cc2)n(CCCCNCc2ccccn2)c2ccc(O)cc12 ... 76%
3. Cc1c(-c2ccc(O)cc2)n(CCCCCNCc2ccccn2)c2ccc(O)cc12 ... 67%
4. Cc1c(-c2ccc(O)cc2)n(CCCCCCCNCc2ccccn2)c2ccc(O)cc12 ... 5%
5. Cc1c(-c2ccc(O)cc2)n(CCCCCCNC(C)c2ccccn2)c2ccc(O)cc12 (configuration not stated) ... 12%
6. CCC(NCCCCCCn1c(-c2ccc(O)cc2)c(C)c2cc(O)ccc21)c1ccccn1 (configuration not stated) ... 79%

Consider the additional compound presented here.
query: Supply reported T/C belonging to this compound: Oc1ccc(-c2cc3cc(O)ccc3n2CCCCCCNCc2ccccn2)cc1
result: 20%

----------
tested on: MCF7; assay: Effect on [3H]thymidine incorporation into estrogen receptor positive MCF-7 human breast cancer cells at 1x10E-6M; format: functional
ENDPOINT_NAME: T/C (%)
Numbers only, in %.

Record excerpt, results attached:
1) Cc1c(-c2ccc(O)cc2)n(CCCCCCCNCc2ccccn2)c2ccc(O)cc12 ... 27
2) Cc1c(-c2ccc(O)cc2)n(CCCCNCc2ccccn2)c2ccc(O)cc12 ... 87
3) Cc1c(-c2ccc(O)cc2)n(CCCCCCNCc2ccccn2)c2ccc(O)cc12 ... 13

Please give T/C, item by item, for the list that follows.
1. Cc1c(-c2ccc(O)cc2)n(CCCCCNCc2ccccn2)c2ccc(O)cc12
2. CCC(NCCCCCCn1c(-c2ccc(O)cc2)c(C)c2cc(O)ccc21)c1ccccn1 (configuration not stated)
3. Oc1ccc(-c2cc3cc(O)ccc3n2CCCCCCNCc2ccccn2)cc1
4. Cc1c(-c2ccc(O)cc2)n(CCCCCCNC(C)c2ccccn2)c2ccc(O)cc12 (configuration not stated)

result:
[76, 99, 41, 46]

----------
Would you mind telling me the reported Relative uterus weight of each entry?
target: Estrogen receptor (Mus musculus) (UniProt O08537+P19785); assay: Anti-uterotrophic effect in mice as relative uterine weight(mg) at 150 ug; type: functional
Answers are plain numbers, in mg.

Record excerpt, results attached:
1) Cc1c(-c2ccc(O)cc2)n(CCCCNCc2ccccn2)c2ccc(O)cc12 ... 44
2) Cc1c(-c2ccc(O)cc2)n(CCCCCCCNCc2ccccn2)c2ccc(O)cc12 ... 29.4
3) Cc1c(-c2ccc(O)cc2)n(CCCCCNCc2ccccn2)c2ccc(O)cc12 ... 44
4) Cc1c(-c2ccc(O)cc2)n(CCCCCCNC(C)c2ccccn2)c2ccc(O)cc12 (configuration not stated) ... 22.4
5) Oc1ccc(-c2cc3cc(O)ccc3n2CCCCCCNCc2ccccn2)cc1 ... 46.1
6) Cc1c(-c2ccc(O)cc2)n(CCCCCCNCc2ccccn2)c2ccc(O)cc12 ... 36.9

Consider the additional molecule presented here.
query: Supply reported Relative uterus weight belonging to this molecule: CCC(NCCCCCCn1c(-c2ccc(O)cc2)c(C)c2cc(O)ccc21)c1ccccn1 (configuration not stated)
result: 30.5

----------
biological target: Estrogen receptor (Mus musculus) (UniProt O08537+P19785); assay: Percent inhibition of estrone stimulated uterotrophic effect in mice at 15 ug; format: functional
Entry flag: yes if inhibition reaches 10%; no if it does not.

Solved cases (5 shown):
1. Cc1c(-c2ccc(O)cc2)n(CCCCCCNC(C)c2ccccn2)c2ccc(O)cc12 (stereo unspecified) ... yes
2. Cc1c(-c2ccc(O)cc2)n(CCCCNCc2ccccn2)c2ccc(O)cc12 ... no
3. Cc1c(-c2ccc(O)cc2)n(CCCCCCCNCc2ccccn2)c2ccc(O)cc12 ... yes
4. Cc1c(-c2ccc(O)cc2)n(CCCCCNCc2ccccn2)c2ccc(O)cc12 ... no
5. Oc1ccc(-c2cc3cc(O)ccc3n2CCCCCCNCc2ccccn2)cc1 ... yes

query: Check if inhibition >= 10% (inclusive). Item: CCC(NCCCCCCn1c(-c2ccc(O)cc2)c(C)c2cc(O)ccc21)c1ccccn1 (stereo unspecified)
result: yes
